measuredOn: AXL (human) (UniProt P30530)
Sequence (P30530 whole entry, looked up): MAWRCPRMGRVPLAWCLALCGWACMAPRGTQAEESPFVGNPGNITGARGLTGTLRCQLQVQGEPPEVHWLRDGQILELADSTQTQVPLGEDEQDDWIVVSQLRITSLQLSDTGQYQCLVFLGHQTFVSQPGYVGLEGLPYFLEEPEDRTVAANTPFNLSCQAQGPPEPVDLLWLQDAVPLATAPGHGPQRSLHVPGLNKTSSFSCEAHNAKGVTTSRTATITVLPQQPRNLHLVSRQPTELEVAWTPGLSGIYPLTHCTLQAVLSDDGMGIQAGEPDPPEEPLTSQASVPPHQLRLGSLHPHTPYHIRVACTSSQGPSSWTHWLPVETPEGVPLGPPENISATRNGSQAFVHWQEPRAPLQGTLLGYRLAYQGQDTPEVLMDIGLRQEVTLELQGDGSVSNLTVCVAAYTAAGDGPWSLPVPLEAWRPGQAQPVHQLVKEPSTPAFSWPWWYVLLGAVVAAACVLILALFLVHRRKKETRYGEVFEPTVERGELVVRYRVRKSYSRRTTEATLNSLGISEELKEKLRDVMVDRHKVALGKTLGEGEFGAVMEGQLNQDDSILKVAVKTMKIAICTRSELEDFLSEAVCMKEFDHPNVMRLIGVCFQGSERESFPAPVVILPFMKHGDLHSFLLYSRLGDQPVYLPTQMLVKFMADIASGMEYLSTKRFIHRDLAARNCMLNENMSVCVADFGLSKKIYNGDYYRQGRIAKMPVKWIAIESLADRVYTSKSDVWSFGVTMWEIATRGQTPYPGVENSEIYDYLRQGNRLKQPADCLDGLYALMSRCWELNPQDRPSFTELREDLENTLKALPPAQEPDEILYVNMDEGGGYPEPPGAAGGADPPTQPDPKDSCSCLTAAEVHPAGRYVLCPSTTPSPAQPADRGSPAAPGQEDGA
experimentDescription: radiometric filter-binding kinase assay, Kinase HotSpot
measurementContext: compound 0.5 µM; ATP 10 µM
Please respond with reported residual activity for every item in the list.
Give the number; % is assumed, so skip it.

Query: Identify measured residual activity associated with Cc1[nH]c(/C=C2\C(=O)Nc3ccc(S(=O)(=O)N(C)c4cccc(Cl)c4)cc32)c(C)c1C(=O)N1CCN(C)CC1
Reply: 66.5

Query: Give the reported value of residual activity for this record: CCC(=O)Nc1ccc2ncnc(Nc3cccc(Br)c3)c2c1
Reply: 126

Query: Note residual activity for the molecule shown: Cc1ccc(Nc2nccc(N(C)c3ccc4c(C)n(C)nc4c3)n2)cc1S(N)(=O)=O
Reply: 78.1

Query: For COc1ccc(COc2ccc(Cc3cnc(N)nc3N)cc2OC)cc1 , write its residual activity.
Reply: 96.4

Query: Tell me measured residual activity for COc1cc2ncnc(Nc3cccc(Cl)c3)c2cc1OC please.
Reply: 95.3

Query: Quote residual activity reported for COc1ccc2c(c[n+](C)c3c4cc5c(cc4ccc23)OCO5)c1OC please.
Reply: 98

Query: For the molecule CCN(CC)CCNC(=O)c1c(C)[nH]c(/C=C2\C(=O)Nc3ccc(F)cc32)c1C , report residual activity.
Reply: 27.4

Query: Please list residual activity recorded for the molecule CC(=O)c1ccc(N2CCOCC2)cc1O
Reply: 96.3

Query: Look up and report measured residual activity for this entry: O=c1cc(N2CCOCC2)oc2c1ccc1ccccc12
Reply: 98.1

Query: Input O=C1Nc2ccc(Cl)cc2/C1=C/c1cc(Cl)c(O)c(Cl)c1 , output reported residual activity.
Reply: 106

Query: Determine from records and report residual activity for c1ccc(-c2n[nH]cc2-c2ccnc3ccccc23)nc1
Reply: 101

Query: Identify residual activity associated with the molecule c1ccc(-c2n[nH]c3c2oc2ccccc23)cc1
Reply: 101

Query: Please supply the value of reported residual activity for the item O=C1NC(=O)/C(=C/c2ccc3c(c2)OC(F)(F)O3)S1
Reply: 107

Query: Read the entry CC[n+]1c(/C=C/N(C)c2ccccc2)n(-c2ccccc2)c2ccc(-c3nc4ccccc4s3)cc21 and write its reported residual activity.
Reply: 101

Query: # return recorded residual activity for input CC#CC(=O)Nc1cc2c(Nc3ccc(F)c(Cl)c3)ncnc2cn1
Reply: 100

Query: Find the measured residual activity of CNc1cc2c(Nc3cccc(Br)c3)ncnc2cn1 and report it.
Reply: 98.6

* * *

Task for the reader: assign each of the following molecules its reported residual activity.
measuredOn: EPHA4 (human)
experimentDescription: radiometric filter-binding kinase assay, Kinase HotSpot
measurementContext: compound 0.5 µM; ATP 10 µM
Reply numerically in %, unit not repeated.

Query: State the measured residual activity (EPHA4 (human)) of O=S(=O)(c1cccc2cnccc12)N1CCCNCC1
Reply: 98.5

Query: Specify the recorded residual activity for CNC(=O)c1cc(Oc2ccc(NC(=O)Nc3ccc(Cl)c(C(F)(F)F)c3)cc2)ccn1 , system: EPHA4 (human).
Reply: 92.5

Query: Provide residual activity, recorded with EPHA4 (human), of CCN(CC)C(=O)c1ccc(Nc2nc(OCC3CCCCC3)c3nc[nH]c3n2)cc1
Reply: 86.7

Query: Provide residual activity, recorded with EPHA4 (human), of O=c1cc(N2CCOCC2)oc2c1ccc1ccccc12
Reply: 94.4

Query: Name the recorded residual activity of COc1ccc(COc2ccc(Cc3cnc(N)nc3N)cc2OC)cc1 , assay system EPHA4 (human).
Reply: 105

Query: Identify measured residual activity obtained with EPHA4 (human) for Nc1ncnc2[nH]nc(Nc3ccc(F)cc3)c12 .
Reply: 90.1

Query: State residual activity on EPHA4 (human). Entry: O=C(Nc1cccc(Nc2nccc(Nc3cccc(C(F)(F)F)c3)n2)c1)C1CC1
Reply: 81

Query: # return residual activity for Cc1[nH]c(/C=C2\C(=O)Nc3ccc(S(=O)(=O)N(C)c4cccc(Cl)c4)cc32)c(C)c1C(=O)N1CCN(C)CC1 , test system: EPHA4 (human)
Reply: 80.7

Query: Jot down residual activity (EPHA4 (human)) of O=C1NC(=O)/C(=C/c2ccc3c(c2)OC(F)(F)O3)S1 .
Reply: 95.9

Query: Tell me residual activity of CCCC(=O)Oc1ccc2[nH]c(C(=O)c3cc4ccccc4[nH]3)cc2c1 when tested on EPHA4 (human).
Reply: 99.3

Query: Report the value of residual activity obtained on EPHA4 (human) for CO[C@H]1CC2CC[C@@H](C)[C@@](O)(O2)C(=O)C(=O)N2CCCC[C@H]2C(=O)OC([C@H](C)C[C@@H]2CC[C@@H](O)[C@H](OC)C2)CC(=O)[C@H](C)/C=C(\C)[C@@H](O)[C@@H](OC)C(=O)[C@H](C)C[C@H](C)/C=C/C=C/C=C/1C (stereo partly drawn) .
Reply: 115

Query: Enter recorded residual activity with EPHA4 (human) for COc1ccc2c(c[n+](C)c3c4cc5c(cc4ccc23)OCO5)c1OC here.
Reply: 103

Query: Quote EPHA4 (human) residual activity for entry Cc1ccc(S(=O)(=O)/C=C/C#N)cc1 .
Reply: 86.1

* * *

measuredOn: SGK3 (human) (UniProt Q96BR1)
Sequence (Q96BR1 whole entry, looked up): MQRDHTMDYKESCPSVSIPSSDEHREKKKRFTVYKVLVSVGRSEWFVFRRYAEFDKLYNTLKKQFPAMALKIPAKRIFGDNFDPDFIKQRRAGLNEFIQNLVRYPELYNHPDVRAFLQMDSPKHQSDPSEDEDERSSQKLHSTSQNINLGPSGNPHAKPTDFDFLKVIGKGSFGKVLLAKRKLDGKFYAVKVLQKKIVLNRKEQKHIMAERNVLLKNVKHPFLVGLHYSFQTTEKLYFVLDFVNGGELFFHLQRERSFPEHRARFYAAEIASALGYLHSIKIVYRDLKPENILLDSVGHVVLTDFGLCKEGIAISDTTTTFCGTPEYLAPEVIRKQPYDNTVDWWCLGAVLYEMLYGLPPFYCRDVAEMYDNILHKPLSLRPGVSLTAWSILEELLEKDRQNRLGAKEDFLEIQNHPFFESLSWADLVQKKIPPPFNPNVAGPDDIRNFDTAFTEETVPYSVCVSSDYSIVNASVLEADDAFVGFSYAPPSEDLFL
experimentDescription: radiometric filter-binding kinase assay, Kinase HotSpot
measurementContext: compound 0.5 µM; ATP 10 µM
endpointName: residual activity (%)
Give your result in % as a bare value.

Query: Tell us which residual activity value is on record for CC#CC(=O)Nc1cc2c(Nc3ccc(F)c(Cl)c3)ncnc2cn1
Reply: 100

Query: Output residual activity of CC[n+]1c(/C=C/N(C)c2ccccc2)n(-c2ccccc2)c2ccc(-c3nc4ccccc4s3)cc21
Reply: 102

Query: State its residual activity: CCC(=O)Nc1ccc2ncnc(Nc3cccc(Br)c3)c2c1
Reply: 92.8

Query: Please give measured residual activity of the following entry: CC(=O)c1ccc(N2CCOCC2)cc1O
Reply: 105

Query: Quote residual activity reported for CCN(CC)CCNC(=O)c1c(C)[nH]c(/C=C2\C(=O)Nc3ccc(Cl)cc32)c1C please.
Reply: 103

Query: Query residual activity for c1ccc(-c2n[nH]c3c2oc2ccccc23)cc1
Reply: 111

* * *

Provide the recorded residual activity for the entries that follow.
measuredOn: PRKD3 (human)
experimentDescription: radiometric filter-binding kinase assay, Kinase HotSpot
measurementContext: compound 0.5 µM; ATP 10 µM
Please reply with the bare figure in % and do not write the unit itself.

Query: Annotate the compound N#CC(C#N)=C(N)/C(C#N)=C/c1ccc(O)cc1 with its measured residual activity.
Reply: 91.9

Query: Complete the entry with residual activity for CCN(CC)C(=O)c1ccc(Nc2nc(OCC3CCCCC3)c3nc[nH]c3n2)cc1
Reply: 66.5

Query: For O=C(Nc1cccc(Nc2nccc(Nc3cccc(C(F)(F)F)c3)n2)c1)C1CC1 , write its residual activity.
Reply: 91.9

Query: Tell us which residual activity value is on record for N#C/C(=C(/N)Sc1ccc(N)cc1)c1ccccc1C(F)(F)F
Reply: 96.8

Query: For the compound c1ccc(-c2n[nH]c3c2oc2ccccc23)cc1 , report residual activity.
Reply: 99.6

Query: Return value of residual activity for input COc1ccc2c(c[n+](C)c3c4cc5c(cc4ccc23)OCO5)c1OC , no commentary.
Reply: 99.3

Query: Identify measured residual activity corresponding to Nc1ncnc2c1c(-c1ccc(Oc3ccccc3)cc1)cn2C1CCCC1
Reply: 89.4

Query: Name the recorded residual activity of the item O=c1cc(N2CCOCC2)oc2c1ccc1ccccc12 in your answer.
Reply: 98.8

Query: Name the recorded residual activity of the compound listed here: Cc1ccc(S(=O)(=O)/C=C/C#N)cc1
Reply: 96.1

Query: Please supply the value of reported residual activity for the item CCC(=O)Nc1ccc2ncnc(Nc3cccc(Br)c3)c2c1
Reply: 85.9

Query: In one line, give reported residual activity of the entry CCN(CC)CCNC(=O)c1c(C)[nH]c(/C=C2\C(=O)Nc3ccc(F)cc32)c1C .
Reply: 16.6

Query: Give residual activity for Cc1ccc(Nc2nccc(N(C)c3ccc4c(C)n(C)nc4c3)n2)cc1S(N)(=O)=O
Reply: 90

Query: Please report residual activity for the following compound: Nc1ccc2ncnc(NCCc3ccc(Oc4ccccc4)cc3)c2c1
Reply: 98.1

Query: Look up residual activity of CC(=O)c1ccc(N2CCOCC2)cc1O and report it.
Reply: 98.4

* * *

Please provide measured residual activity for the entries that follow.
measuredOn: GRK4 (human) (UniProt P32298)
Sequence (P32298 whole entry, looked up): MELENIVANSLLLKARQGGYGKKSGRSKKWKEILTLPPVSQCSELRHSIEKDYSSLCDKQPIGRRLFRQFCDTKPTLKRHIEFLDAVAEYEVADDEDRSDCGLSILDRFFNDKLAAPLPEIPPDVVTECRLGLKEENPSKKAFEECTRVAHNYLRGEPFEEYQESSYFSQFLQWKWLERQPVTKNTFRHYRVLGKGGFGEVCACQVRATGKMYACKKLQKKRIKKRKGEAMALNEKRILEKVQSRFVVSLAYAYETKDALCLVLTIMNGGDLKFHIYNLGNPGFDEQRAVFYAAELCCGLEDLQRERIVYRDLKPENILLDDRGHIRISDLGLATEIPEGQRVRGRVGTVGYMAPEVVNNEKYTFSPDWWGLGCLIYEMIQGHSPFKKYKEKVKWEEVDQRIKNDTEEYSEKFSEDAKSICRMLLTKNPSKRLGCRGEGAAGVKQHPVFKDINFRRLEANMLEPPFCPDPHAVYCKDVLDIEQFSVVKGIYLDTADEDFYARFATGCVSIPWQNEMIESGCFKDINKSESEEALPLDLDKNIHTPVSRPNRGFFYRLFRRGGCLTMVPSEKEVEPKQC
experimentDescription: radiometric filter-binding kinase assay, Kinase HotSpot
measurementContext: compound 0.5 µM; ATP 10 µM
Write the answer as a number in %, unit excluded.

Query: Complete the entry with residual activity for O=C1NC(=O)/C(=C/c2ccc3c(c2)OC(F)(F)O3)S1
Reply: 102

Query: Provide one value: measured residual activity of Nc1ccc2ncnc(NCCc3ccc(Oc4ccccc4)cc3)c2c1
Reply: 99.6

Query: In one line, give reported residual activity of the entry O=C1Nc2ccc(Cl)cc2/C1=C/c1cc(Cl)c(O)c(Cl)c1 .
Reply: 108

Query: Give the reported residual activity for this compound. Nc1cccc(-c2cc3c(Oc4cccc(O)c4)ncnc3[nH]2)c1
Reply: 94.7

Query: Using known records, supply residual activity for CC#CC(=O)Nc1cc2c(Nc3ccc(F)c(Cl)c3)ncnc2cn1
Reply: 104

Query: For CCN(CC)C(=O)c1ccc(Nc2nc(OCC3CCCCC3)c3nc[nH]c3n2)cc1 , write its residual activity.
Reply: 93

Query: Report residual activity, nothing else, for this compound: CC(C)N(CCC(=O)c1ccc2ccccc2c1)Cc1ccccc1
Reply: 94.9

Query: Indicate the recorded residual activity value for this compound: Nc1ncnc2[nH]nc(Nc3ccc(F)cc3)c12
Reply: 98.8

Query: Give the measured residual activity for Oc1cccc(-c2nc(N3CCOCC3)c3oc4ncccc4c3n2)c1
Reply: 102

Query: Answer with the recorded residual activity of c1ccc(-c2n[nH]cc2-c2ccnc3ccccc23)nc1 only.
Reply: 94.3

Query: Please look at this compound and report its residual activity: COc1cc2ncnc(Nc3cccc(Cl)c3)c2cc1OC
Reply: 102

Query: Identify residual activity associated with the compound COc1ccc2c(c[n+](C)c3c4cc5c(cc4ccc23)OCO5)c1OC
Reply: 94.8
